Below are compounds with their MIC as measured on S. aureus ATCC 29213 (SA101, MSSA).
readout: MIC (µg/mL)

compound	assayed target	readout	relation operator	result number
CN(C)[C@@H]1C(O)=C(C(N)=O)C(=O)[C@@]2(O)C(O)=C3C(=O)c4c(O)c(NC(=O)CNCC5CC5)cc(F)c4C[C@H]3C[C@@H]12	S. aureus ATCC 29213 (SA101, MSSA)	MIC	≤	0.0156
CN(C)[C@@H]1C(O)=C(C(N)=O)C(=O)[C@@]2(O)C(O)=C3C(=O)c4c(O)c(NC(=O)CN5CC6CCCC6C5)cc(F)c4C[C@H]3C[C@@H]12 (some centres unmarked)	S. aureus ATCC 29213 (SA101, MSSA)	MIC	=	0.5
CN(C)[C@@H]1C(O)=C(C(N)=O)C(=O)[C@@]2(O)C(O)=C3C(=O)c4c(O)c(NC(=O)CN5CC[C@@H](O)C5)cc(F)c4C[C@H]3C[C@@H]12	S. aureus ATCC 29213 (SA101, MSSA)	MIC	=	2
CCN(C)CC(=O)Nc1cc(F)c2c(c1O)C(=O)C1=C(O)[C@]3(O)C(=O)C(C(N)=O)=C(O)[C@@H](N(C)C)[C@@H]3C[C@@H]1C2	S. aureus ATCC 29213 (SA101, MSSA)	MIC	=	0.25
CN(C)[C@@H]1C(O)=C(C(N)=O)C(=O)[C@@]2(O)C(O)=C3C(=O)c4c(O)c(NC(=O)CN5CCCCC5)cc(F)c4C[C@H]3C[C@@H]12	S. aureus ATCC 29213 (SA101, MSSA)	MIC	=	0.5

---

Tested on: S. aureus SA158 (tet resistant: tetK efflux)
Test: microbe, parasite or virus in culture
Format: cell-based
Settings: Staphylococcus aureus, read-out: MICs SA158
Label key: t means MIC under 2 µg/mL; f means MIC of 2 µg/mL or more.

molecule	label
COCCNCC(=O)Nc1cc(F)c2c(c1O)C(=O)C1=C(O)[C@]3(O)C(=O)C(C(N)=O)=C(O)[C@@H](N(C)C)[C@@H]3C[C@@H]1C2	f
CN(C)[C@@H]1C(O)=C(C(N)=O)C(=O)[C@@]2(O)C(O)=C3C(=O)c4c(O)c(NC(=O)CNCC(C)(C)C)cc(F)c4C[C@H]3C[C@@H]12	t
COC[C@H]1CCCN1CC(=O)Nc1cc(F)c2c(c1O)C(=O)C1=C(O)[C@]3(O)C(=O)C(C(N)=O)=C(O)[C@@H](N(C)C)[C@@H]3C[C@@H]1C2	t
CN(CC(=O)Nc1cc(F)c2c(c1O)C(=O)C1=C(O)[C@]3(O)C(=O)C(C(N)=O)=C(O)[C@@H](N(C)C)[C@@H]3C[C@@H]1C2)C1CCCC1	t
CN(C)[C@@H]1C(O)=C(C(N)=O)C(=O)[C@@]2(O)C(O)=C3C(=O)c4c(O)c(NC(=O)CN5CC6CCCC6C5)cc(F)c4C[C@H]3C[C@@H]12 (some centres unmarked)	t
CCCCNCC(=O)Nc1cc(F)c2c(c1O)C(=O)C1=C(O)[C@]3(O)C(=O)C(C(N)=O)=C(O)[C@@H](N(C)C)[C@@H]3C[C@@H]1C2	t
CN(C)[C@H]1CCN(CC(=O)Nc2cc(F)c3c(c2O)C(=O)C2=C(O)[C@]4(O)C(=O)C(C(N)=O)=C(O)[C@@H](N(C)C)[C@@H]4C[C@@H]2C3)C1	f
CN(C)[C@@H]1C(O)=C(C(N)=O)C(=O)[C@@]2(O)C(O)=C3C(=O)c4c(O)c(NC(=O)CNC5CCCC5)cc(F)c4C[C@H]3C[C@@H]12	t
CN(C)[C@@H]1C(O)=C(C(N)=O)C(=O)[C@@]2(O)C(O)=C3C(=O)c4c(O)c(NC(=O)CN5Cc6ccccc6C5)cc(F)c4C[C@H]3C[C@@H]12	t
COCCCNCC(=O)Nc1cc(F)c2c(c1O)C(=O)C1=C(O)[C@]3(O)C(=O)C(C(N)=O)=C(O)[C@@H](N(C)C)[C@@H]3C[C@@H]1C2	f
